assay.name: PK in naïve mice
Format: in vivo
recorded.conditions: mouse, 3 mg kg^−1 subcutaneous, Mean/Median (n=3); read-out: C0/Cmax
measurement.kind: Cmax (nM)
API: value field is a number in nM; no unit string.

// Cmax value for "CCCCCCCNC(N)=Nc1ccc(CN[C@@]2(C)C[C@H](O[C@H]3[C@H](Oc4c5cc6cc4Oc4ccc(cc4Cl)[C@@H](O)[C@@H](NC(=O)[C@@H](CC(C)C)NC)C(=O)N[C@@H](CC(N)=O)C(=O)N[C@H]6C(=O)N[C@H]4C(=O)N[C@H](C(=O)N[C@H](C(=O)O)c6cc(O)cc(O)c6-c6cc4ccc6O)[C@H](O)c4ccc(c(Cl)c4)O5)O[C@H](CO)[C@@H](O)[C@@H]3O)O[C@@H](C)[C@H]2O)cc1" : 1070

---

Test system: E. faecium E2359
assay.name: MIC assay
Type: cell-based, Enterococcus faecium
recorded.conditions: E. faecium E2359, VanB
measurement.kind: MIC

Fill in: E. faecium E2359 MIC for "CN[C@H](CC(C)C)C(=O)N[C@H]1C(=O)N[C@@H](CC(N)=O)C(=O)N[C@H]2C(=O)N[C@H]3C(=O)N[C@H](C(=O)N[C@H](C(=O)O)c4cc(O)cc(O)c4-c4cc3ccc4O)[C@H](O)c3ccc(c(Cl)c3)Oc3cc2cc(c3O[C@@H]2O[C@H](CO)[C@@H](O)[C@H](O)[C@H]2O[C@H]2C[C@](C)(NCc3ccc(N=C(N)NC/C=C(\C)CCC=C(C)C)cc3)[C@H](O)[C@H](C)O2)Oc2ccc(cc2Cl)[C@H]1O" = ≤8 ng/mL

---

Tested on: S. aureus HIP12864, NR-46074
assay.name: MIC assay
Type: cell-based, Staphylococcus aureus
recorded.conditions: S. aureus HIP12864, NR-46074 VISA
measurement.kind: MIC (mg/L)
API: value field is a number in mg/L; no unit string.

// MIC value for CCCCN(CCCC)C(N)=Nc1ccc(CN[C@@]2(C)C[C@H](O[C@H]3[C@H](Oc4c5cc6cc4Oc4ccc(cc4Cl)[C@@H](O)[C@@H](NC(=O)[C@@H](CC(C)C)NC)C(=O)N[C@@H](CC(N)=O)C(=O)N[C@H]6C(=O)N[C@H]4C(=O)N[C@H](C(=O)N[C@H](C(=O)O)c6cc(O)cc(O)c6-c6cc4ccc6O)[C@H](O)c4ccc(c(Cl)c4)O5)O[C@H](CO)[C@@H](O)[C@@H]3O)O[C@@H](C)[C@H]2O)cc1 [Compound 11] : 1

---

Tested on: E. faecium E155
assay.name: microbe, parasite or virus in culture
Type: cell-based, Enterococcus faecium
recorded.conditions: E. faecium E155 VRE (VanA)
Criterion: MIC strictly less than 1 µg/mL. Met: y. Not met: n.

Please let me know if CCCCN(CCCC)C(N)=Nc1ccc(CN[C@@]2(C)C[C@H](O[C@H]3[C@H](Oc4c5cc6cc4Oc4ccc(cc4Cl)[C@@H](O)[C@@H](NC(=O)[C@@H](CC(C)C)NC)C(=O)N[C@@H](CC(N)=O)C(=O)N[C@H]6C(=O)N[C@H]4C(=O)N[C@H](C(=O)N[C@H](C(=O)O)c6cc(O)cc(O)c6-c6cc4ccc6O)[C@H](O)c4ccc(c(Cl)c4)O5)O[C@H](CO)[C@@H](O)[C@@H]3O)O[C@@H](C)[C@H]2O)cc1 [Compound 11] shows MIC below 1 µg/mL.
n

Please let me know if CCCCCCCCCNC(N)=Nc1ccc(CN[C@@]2(C)C[C@H](O[C@H]3[C@H](Oc4c5cc6cc4Oc4ccc(cc4Cl)[C@@H](O)[C@@H](NC(=O)[C@@H](CC(C)C)NC)C(=O)N[C@@H](CC(N)=O)C(=O)N[C@H]6C(=O)N[C@H]4C(=O)N[C@H](C(=O)N[C@H](C(=O)O)c6cc(O)cc(O)c6-c6cc4ccc6O)[C@H](O)c4ccc(c(Cl)c4)O5)O[C@H](CO)[C@@H](O)[C@@H]3O)O[C@@H](C)[C@H]2O)cc1 [Compound 7] shows MIC below 1 µg/mL.
y

Please let me know if CN[C@H](CC(C)C)C(=O)N[C@H]1C(=O)N[C@@H](CC(N)=O)C(=O)N[C@H]2C(=O)N[C@H]3C(=O)N[C@H](C(=O)N[C@H](C(=O)O)c4cc(O)cc(O)c4-c4cc3ccc4O)[C@H](O)c3ccc(c(Cl)c3)Oc3cc2cc(c3O[C@@H]2O[C@H](CO)[C@@H](O)[C@H](O)[C@H]2O[C@H]2C[C@](C)(NCc3ccc(N=C(N)NC/C=C(\C)CC/C=C(\C)CCC=C(C)C)cc3)[C@H](O)[C@H](C)O2)Oc2ccc(cc2Cl)[C@H]1O [Compound 15] shows MIC below 1 µg/mL.
y

Please let me know if CN[C@H](CC(C)C)C(=O)N[C@H]1C(=O)N[C@@H](CC(N)=O)C(=O)N[C@H]2C(=O)N[C@H]3C(=O)N[C@H](C(=O)N[C@H](C(=O)O)c4cc(O)cc(O)c4-c4cc3ccc4O)[C@H](O)c3ccc(c(Cl)c3)Oc3cc2cc(c3O[C@@H]2O[C@H](CO)[C@@H](O)[C@H](O)[C@H]2O[C@H]2C[C@](C)(NCc3ccc(N=C(N)NC45CC6CC(CC(C6)C4)C5)cc3)[C@H](O)[C@H](C)O2)Oc2ccc(cc2Cl)[C@H]1O [Compound 17] shows MIC below 1 µg/mL.
n

Please let me know if CCCCCCCCCCCCCCNC(N)=Nc1ccc(CN[C@@]2(C)C[C@H](O[C@H]3[C@H](Oc4c5cc6cc4Oc4ccc(cc4Cl)[C@@H](O)[C@@H](NC(=O)[C@@H](CC(C)C)NC)C(=O)N[C@@H](CC(N)=O)C(=O)N[C@H]6C(=O)N[C@H]4C(=O)N[C@H](C(=O)N[C@H](C(=O)O)c6cc(O)cc(O)c6-c6cc4ccc6O)[C@H](O)c4ccc(c(Cl)c4)O5)O[C@H](CO)[C@@H](O)[C@@H]3O)O[C@@H](C)[C@H]2O)cc1 [Compound 10] shows MIC below 1 µg/mL.
y

Please let me know if CCCCCCNC(N)=Nc1ccc(CNC2(C)CC(OC3C(Oc4c5cc6cc4Oc4ccc(cc4Cl)C(O)C4NC(=O)C(NC(=O)C6NC(=O)C(CC(N)=O)NC(=O)C(NC(=O)C(CC(C)C)NC)C(O)c6ccc(c(Cl)c6)O5)c5ccc(O)c(c5)-c5c(O)cc(O)cc5C(C(=O)O)NC4=O)OC(CO)C(O)C3O)OC(C)C2O)cc1 (centres unmarked) [Compound 4] shows MIC below 1 µg/mL.
n

Please let me know if CCCCCCCCCCN(CCCCCCCCCC)C(N)=Nc1ccc(CN[C@@]2(C)C[C@H](O[C@H]3[C@H](Oc4c5cc6cc4Oc4ccc(cc4Cl)[C@@H](O)[C@@H](NC(=O)[C@@H](CC(C)C)NC)C(=O)N[C@@H](CC(N)=O)C(=O)N[C@H]6C(=O)N[C@H]4C(=O)N[C@H](C(=O)N[C@H](C(=O)O)c6cc(O)cc(O)c6-c6cc4ccc6O)[C@H](O)c4ccc(c(Cl)c4)O5)O[C@H](CO)[C@@H](O)[C@@H]3O)O[C@@H](C)[C@H]2O)cc1 [Compound 13] shows MIC below 1 µg/mL.
n

Please let me know if CCCCCCCNC(N)=Nc1ccc(CN[C@@]2(C)C[C@H](O[C@H]3[C@H](Oc4c5cc6cc4Oc4ccc(cc4Cl)[C@@H](O)[C@@H](NC(=O)[C@@H](CC(C)C)NC)C(=O)N[C@@H](CC(N)=O)C(=O)N[C@H]6C(=O)N[C@H]4C(=O)N[C@H](C(=O)N[C@H](C(=O)O)c6cc(O)cc(O)c6-c6cc4ccc6O)[C@H](O)c4ccc(c(Cl)c4)O5)O[C@H](CO)[C@@H](O)[C@@H]3O)O[C@@H](C)[C@H]2O)cc1 [Compound 5] shows MIC below 1 µg/mL.
n

Values were extracted from patent US20230174584A1.
